Data credit: patent US20240116985A1

Target: full-length B-Catenin (Uniprot ID P35222) (Homo sapiens)
Construct: 65 nM full-length B-Catenin (Uniprot ID P35222)
Sequence (P35222 whole entry): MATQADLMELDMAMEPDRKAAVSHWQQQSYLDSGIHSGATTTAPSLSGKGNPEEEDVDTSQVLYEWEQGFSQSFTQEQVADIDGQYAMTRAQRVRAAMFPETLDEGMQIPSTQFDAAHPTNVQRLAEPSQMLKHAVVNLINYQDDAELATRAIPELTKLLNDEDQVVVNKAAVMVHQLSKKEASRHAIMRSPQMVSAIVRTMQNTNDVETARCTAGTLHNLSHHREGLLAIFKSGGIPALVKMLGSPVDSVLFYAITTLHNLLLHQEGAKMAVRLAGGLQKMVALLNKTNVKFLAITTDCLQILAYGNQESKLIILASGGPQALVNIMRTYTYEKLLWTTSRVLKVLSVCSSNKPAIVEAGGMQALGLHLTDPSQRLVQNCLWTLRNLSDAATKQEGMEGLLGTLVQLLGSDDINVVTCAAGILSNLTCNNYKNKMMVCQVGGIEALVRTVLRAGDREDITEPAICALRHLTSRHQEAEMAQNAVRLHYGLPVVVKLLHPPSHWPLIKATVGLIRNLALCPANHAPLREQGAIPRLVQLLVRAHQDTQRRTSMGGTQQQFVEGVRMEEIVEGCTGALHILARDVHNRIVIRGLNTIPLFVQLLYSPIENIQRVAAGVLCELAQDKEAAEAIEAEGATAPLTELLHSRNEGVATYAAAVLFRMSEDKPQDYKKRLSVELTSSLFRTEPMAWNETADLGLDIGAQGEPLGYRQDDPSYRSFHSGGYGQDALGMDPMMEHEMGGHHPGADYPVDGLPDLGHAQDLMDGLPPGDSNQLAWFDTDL
Test: Alphascreen binding assay (beta-catenin / biotin-TCF4 10-53)
Description: In some embodiments, an assay is an Alphascreen binding assay. A useful protocol is described below as an example. Alphascreen binding assay: Using the AlphaScreen Histidine (Nickel Chelate) Detection Kit (PerkinElmer), peptide solutions were prepared in buffer (50 mM Tris pH 8.0, 250 mM NaCl, 2% glycerol, 0.03% Tween-20, 0.01% TritonX-100, 0.1% BSA w/v) using a 3-fold serial dilution from 10 uM to 5 nM. […]
measured_quantity: EC50 (µM)
Reply numerically in µM, unit not repeated.

1. CC(=O)N1CCC[C@]12CC=CCCCC1(CCCC=CCCCCCC[C@@](C)(C(=O)N[C@@H](Cc3ccccc3)C(=O)N[C@@H](Cc3ccc4ccccc4c3)C(=O)N[C@@H](C)C(N)=O)NC(=O)[C@H](C)NC(=O)[C@H](Cc3ccc(F)c(F)c3)NC(=O)[C@H](C)NC(=O)[C@H](C)NC(=O)[C@H](CCC(=O)O)NC(=O)[C@H](CC(=O)O)NC1=O)NC(=O)[C@H](C)NC(=O)[C@H](CC(=O)O)NC2=O (stereo partly drawn)
2.66
2. CC[C@H](C)[C@H](NC(=O)[C@H](CC(=O)O)NC(C)=O)C(=O)N[C@]1(C)CCN(C)C(=O)OCC=CCCCCC[C@@](C)(C(=O)N[C@@H](Cc2ccccc2)C(=O)N[C@@H](Cc2c[nH]c3ccccc23)C(N)=O)NC(=O)[C@H](CCC(N)=O)NC(=O)[C@H](Cc2ccccc2)NC(=O)[C@H](C)NC(=O)[C@H](C)NC(=O)[C@H](CC(=O)O)NC(=O)[C@H](CC(=O)O)NC1=O
5.5

Turning now to a further record.
Can you look up the measured EC50 of CC(=O)N[C@@H](Cc1ccccc1)C(=O)N[C@@H](CC(=O)O)C(=O)N[C@@H](C)C(=O)N[C@]1(C)CCCCCCC=CCOC(=O)N2CC[C@@](C(=O)N[C@@H](Cc3ccccc3)C(=O)N[C@@H](Cc3c[nH]c4ccccc34)C(=O)N[C@@H](CCC(N)=O)C(N)=O)(C2)NC(=O)[C@H]([C@@H](C)O)NC(=O)[C@H](Cc2ccccc2)NC(=O)[C@H](C)NC(=O)[C@H](C)NC(=O)[C@H](CC(=O)O)NC(=O)[C@H](CC(=O)O)NC1=O [I-224] for me?
4.12

----------
Assay: CHI Log D procedure
Assay type: physicochemical
Conditions: pH 7.4
measured_quantity: CHI Log D

Example compounds with recorded CHI Log D:
1) CC(=O)N1CCC[C@]12CC=CCCCC1(CCCC=CCCCCCC[C@@](C)(C(=O)N[C@@H](Cc3ccccc3)C(=O)N[C@@H](Cc3csc4ccccc34)C(=O)N[C@@H](CCC(N)=O)C(N)=O)NC(=O)[C@H](CC(N)=O)NC(=O)[C@H](Cc3ccccc3)NC(=O)[C@H](C)NC(=O)[C@H](C)NC(=O)[C@H](CC(=O)O)NC(=O)[C@H](CC(=O)O)NC1=O)NC(=O)[C@H](C(C)C)NC(=O)[C@H](CC(=O)O)NC2=O (stereo partly drawn) [I-566]
2.175
2) CC[C@H](C)[C@@H]1NC(=O)[C@H](CC(=O)O)NC(=O)[C@]2(CC=CCCCC3(CCCC=CCCCCCC[C@@](C)(C(=O)N[C@@H](Cc4ccccc4)C(=O)N[C@@H](Cc4csc5ccccc45)C(=O)N[C@@H](CCC(N)=O)C(N)=O)NC(=O)[C@H](CCC(N)=O)NC(=O)[C@H](Cc4ccccc4)NC(=O)[C@H](C)NC(=O)[C@H](C)NC(=O)[C@H](CN(CC)CC(=O)O)NC(=O)[C@H](CC(=O)O)NC3=O)NC1=O)CCCN2C(C)=O (stereo partly drawn) [I-609]
2.534

Turning now to a further record.
Can you look up the measured CHI Log D of CC(=O)N1CCC[C@]12CC=CCCCC1(CCCC=CCCCCCC[C@@](C)(C(=O)N[C@@H](Cc3ccccc3)C(=O)N[C@@H](Cc3csc4ccccc34)C(=O)N[C@@H](CCC(N)=O)C(N)=O)NC(=O)[C@H](CCC(N)=O)NC(=O)[C@H](Cc3ccccc3)NC(=O)[C@H](C)NC(=O)[C@H](C)NC(=O)[C@H](CC(=O)O)NC(=O)[C@H](CC(=O)O)NC1=O)NC(=O)[C@H](CC(C)C)NC(=O)[C@H](CC(=O)O)NC2=O (stereo partly drawn) [I-559] for me?
2.341
